# TARGET UNDER TEST: KIF5B-RET G810V (Homo sapiens, UniProt P07949, G810V)
# Construct: KIF5B (fusion partner); the other entry of the earlier key: KIF5B (P33176, Kinesin-1 heavy chain)
# Sequence (P07949 713-1063 G810V limits assumed): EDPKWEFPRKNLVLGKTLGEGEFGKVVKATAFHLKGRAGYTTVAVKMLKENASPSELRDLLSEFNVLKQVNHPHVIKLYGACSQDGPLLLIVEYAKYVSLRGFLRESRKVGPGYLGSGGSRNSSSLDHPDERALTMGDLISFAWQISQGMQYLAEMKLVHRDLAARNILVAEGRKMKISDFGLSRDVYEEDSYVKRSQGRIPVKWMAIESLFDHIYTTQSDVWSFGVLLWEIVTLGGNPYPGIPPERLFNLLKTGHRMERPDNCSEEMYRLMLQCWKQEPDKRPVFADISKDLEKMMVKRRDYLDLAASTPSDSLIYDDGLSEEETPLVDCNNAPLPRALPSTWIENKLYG
# METHOD: Cell viability assay (CellTiter-Glo) in BaF3 cells expressing KIF5B-RET G810V
# ASSAY CONDITIONS: B/KR mutant cell line G810V; read-out: IC50 of RET mutants, G810V
pIC50: −log10 of the molar value.
TEST READOUT: pIC50

INSERT INTO measurements (molecule, target_under_test, test_readout, obs_value) VALUES
  ('CN1CCN(Cc2ccc(NC(=O)c3cncc(C#Cc4cnc5[nH]ncc5c4)c3)cc2C(F)(F)F)CC1 [Example 1]', 'KIF5B-RET G810V (Homo sapiens, UniProt P07949, G810V)', 'pIC50', 8.39),
  ('CN1CCN(Cc2ccc(NC(=O)c3cncc(C#Cc4cnc(N)nc4)c3)cc2C(F)(F)F)CC1 [Example 2]', 'KIF5B-RET G810V (Homo sapiens, UniProt P07949, G810V)', 'pIC50', 8.08);
